Data origin: PubChem BioAssay AID372

inhibition values for the compounds below.
MEASUREMENT TARGET: Gag-Pol polyprotein (Human immunodeficiency virus type 1 group M subtype B (isolate HXB2)) (UniProt P04585)
TEST DESCRIPTION: RNase H inhibition, HIV 1 Gag Pol polyprotein, FRET biochemical assay, screening (AID 372)
TEST SETTINGS: HIV-1 RT RNase H, FRET RNA/DNA substrate fluorescence; at 10 µM; hits give high values
Screen size: about 100,000 compounds; about 770 (0.77%) were called active. Shown is part of a subset that was picked to be rich in actives.
Please respond with the number in % and leave the unit unwritten.

// solved cases for inhibition follow
In [3]: df
Out[3]:
                                   compound  reading
0  COc1ccc(N2C(=O)/C(=C/c3ccc(-c4ccccc4[N+](=O)[O-])o3)SC2=S)cc1       26
1     COc1ccc(CNC(=O)CSc2nc3ccccc3[nH]2)cc1        3
2  CC(=O)Oc1ccc(-c2cccc(C(=O)Nc3ccccc3Cl)c2)cc1       16
3            CCOc1ccc(C(=O)NCc2ccco2)cc1OCC       50
4  C=CCn1cc(/C=c2\sc3n(c2=O)C(c2ccc(OC)cc2)C(C(=O)OCC)=C(C)N=3)c2ccccc21 (stereo unspecified)       15

Req: Quick check: inhibition of O=C(N=Nc1c(O)n(CN2CCCCC2)c2ccccc12)c1ccncc1 ?
Resp: 0

Req: Quick check: inhibition of Cc1cc(I)ccc1NC(=O)c1ccccc1F ?
Resp: 8

Req: Quick check: inhibition of O=c1[nH]c(-c2ccc(Br)cc2)nc2ccccc12 ?
Resp: 13

Req: Quick check: inhibition of CCCOc1ccc(C(=O)NCc2ccccc2)cc1 ?
Resp: 6

Req: Quick check: inhibition of O=C1CC(c2ccccc2)CC(O)=C1C=NCc1ccc(F)cc1 (stereo unspecified) ?
Resp: 8

Req: Quick check: inhibition of CCOc1ccc(C2=CC(=O)C(c3ccccc3)CC2)cc1 (stereo unspecified) ?
Resp: 22
